Would you kindly list pEC50 for each of these molecules?
target: cAMP-dependent protein kinase type I-alpha regulatory subunit (Bos taurus) + cAMP-dependent protein kinase catalytic subunit beta (Mus musculus) (UniProt P00514+P68181); assay: activation of PKA-R1A holoenzyme dissociation, dose response, counter-screen for PKA-R2B activator project, biochemical, Cy5-IP20 fluorescence polarization, 1536-well, triplicate (AID 504896)
Give bare numbers, as −log10 of the molar value.

>>> measured_result("Nc1nc2c(nc(Br)n2[C@@H]2O[C@@H]3COP(=O)(O)O[C@H]3[C@H]2O)c(=O)[nH]1")
5.11
>>> measured_result("CCCC(=O)Nc1ncnc2c1ncn2[C@@H]1O[C@@H]2OP(=O)(O)OC[C@H]2[C@H]1OC(=O)CCC")
5.17
>>> measured_result("Nc1ncnc2c1nc(Br)n2[C@@H]1O[C@@H]2COP(=O)(O)O[C@H]2[C@H]1O")
7.46
>>> measured_result("Nc1ncnc2c1nc(Sc1ccc(Cl)cc1)n2[C@@H]1O[C@@H]2COP(=O)(O)O[C@H]2[C@H]1O")
7.49

Kindly consider the entry below.
Task: Need pEC50 of CCOP1(=O)OCC2OC(n3cnc4c(N)ncnc43)C(O)C2O1 (stereo not given) , thanks.
Output: 5.57
